# Study system: T1, human ACVR2A (human, UniProt P27037 20-135, limits assumed); note: test concentration or dose not given here
# T1 construct: coated antigen of the initial ELISA; also called activin receptor, type II A
# T1 sequence (P27037 20-135 limits assumed): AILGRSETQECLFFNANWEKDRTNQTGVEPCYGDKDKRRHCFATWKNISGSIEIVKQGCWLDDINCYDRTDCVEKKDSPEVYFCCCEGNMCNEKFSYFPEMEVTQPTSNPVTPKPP
# Procedure details: ELISA
Hi! Could you tag entries with optical density below 3 OD as Satisfied, and those at or above as Not satisfied? Much appreciated.

Input: Strictly below 3 OD: is that where optical density of 368_F09 (antibody, V domains shown, Group III) VH: EVQLLESGGGLVQPGGSLRLSCAASGFTFSSYGMNWVRQAPGKGLEWVSGINYNSGYTSYADSVKGRFTISRDNSKNTLYLQMNSLRAEDTAVYYCARGANWHDTHLDYWGQGTLVTVSS VL: DIQMTQSPSSLSASVGDRVTITCRASQSILTYLNWYQQKPGKAPKLLIYAASSLQSGVPSRFSGSGSGTDFTLTISSLQPEDFATYYCQQSYETPLTFGGGTKVEIK sits?
Output: Satisfied

Input: Also, 374_A06 (antibody, V domains shown, Group III) VH: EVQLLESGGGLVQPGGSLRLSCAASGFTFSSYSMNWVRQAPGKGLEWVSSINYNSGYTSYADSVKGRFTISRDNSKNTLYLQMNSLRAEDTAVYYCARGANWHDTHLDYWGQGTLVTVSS VL: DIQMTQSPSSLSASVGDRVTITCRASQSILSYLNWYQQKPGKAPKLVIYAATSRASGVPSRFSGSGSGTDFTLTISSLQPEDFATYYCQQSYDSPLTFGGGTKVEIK please.
Output: Not satisfied

Input: Field entry: 376_B10 (antibody, V domains shown, Group III) VH: EVQLLESGGGLVQPGGSLRLSCAASGFTFSDYSMNWVRQAPGKGLEWVAGINYNGGYKGYADSVKGRFTISRDNSKNTLYLQMNSLRAEDTAVYYCARGANWHDTALDYWGQGTLVTVSS VL: DIQMTQSPSSLSASVGDRVTITCRASQSILSYLNWYQQKPGKAPKLVIYAATSLASGVPSRFSGSGSGTDFTLTISSLQPEDFATYYCQQSYSTPLTFGGGTKVEIK
Output: Not satisfied

Input: Field entry: 374_C01 (antibody, V domains shown, Group III) VH: EVQLLESGGGLVQPGGSLRLSCAASGFTFDSYGMNWVRQAPGKGLEWVSGINYNSGYKSYADSVKGRFTISRDNSKNTLYLQMNSLRAEDTAVYYCARGANWHDTALDYWGQGTLVTVSS VL: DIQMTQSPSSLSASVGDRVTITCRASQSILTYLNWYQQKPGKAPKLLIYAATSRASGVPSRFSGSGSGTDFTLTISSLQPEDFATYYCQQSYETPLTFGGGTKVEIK
Output: Satisfied

Input: Follow-up entry: 373_A05 (antibody, V domains shown, Group III) VH: EVQLLESGGGLVQPGGSLRLSCAASGFTFSDYSMNWVRQAPGKGLEWVSGINYNSGYKSYADSVKGRFTISRDNSKNTLYLQMNSLRAEDTAVYYCARGANWHDTHLDYWGQGTLVTVSS VL: DIQMTQSPSSLSASVGDRVTITCRASQSILSYVNWYQQKPGKAPKLVIYAATSRHSGVPSRFSGSGSGTDFTLTISSLQPEDFATYYCQQSYESPLTFGGGTKVEIK
Output: Not satisfied
